System: SK-MEL-28 melanoma
Assay text: NCI-60 one-dose screen, 48 h
Recorded conditions: 10 µM unless noted
This is part of a sample that, as a whole, favours compounds with a hit. Of some 83,000 tested, about 20% had one in any assay. Active and inactive are the calls of the source. Rule for the calls: active = growth percent below 10; inactive = the rest.
Outcomes: active, inactive

Compound: CC(=O)Nc1ccc(Sc2ccc([N+](=O)[O-])o2)cc1
Class assignment: active
--
Compound: O=c1[nH]c(=O)n(Cc2ccc(F)cc2)cc1F
Class assignment: inactive
--
Compound: CC(=O)Nc1ccc(S(=O)(=O)N/N=C\c2ccc(Cl)c(Cl)c2)cc1
Class assignment: inactive
--
Compound: O=c1oc2ccccc2cc1-c1csc(N=Nc2c(O)[nH]c3ccc(Br)cc23)n1
Class assignment: inactive
--
Compound: CC(=O)OC[C@]1(C)C=C2C(=O)[C@](C)(O)C3(CC3)C(C)=C2[C@H]1OC(C)=O
Class assignment: inactive
--
Compound: ONc1nc(NO)c2[nH]cnc2n1
Class assignment: inactive
--
Compound: COc1ccc(OC)c2ncccc12
Class assignment: inactive
--
Compound: COc1cc(-c2ccc3cc(OC)c(OC)c(OC)c3c2)cc(OC)c1OC
Class assignment: inactive
--
Compound: Cc1cc(NS(=O)(=O)c2ccc(NC(=O)COc3ccc(-c4cc5ccccc5[nH]4)cc3)cc2)no1
Class assignment: inactive
--
Compound: COc1cc(/C=N/NC(=O)c2cnn3c2NC(c2ccccc2)C3)ccc1OC1CCCC1 (stereo unspecified)
Class assignment: inactive
--
Compound: CCOC(=O)C1=C(C)N2C(=NC3=C(CCCC/C3=C\c3ccccc3)C2c2ccccc2)S1 (stereo unspecified)
Class assignment: inactive

* * *

Tested on: NCI-H23 lung
Assay text: NCI-60 one-dose screen, 48 h (100 = growth as untreated, 0 = no growth, -100 = all killed)
Recorded conditions: 10 µM unless noted
Compounds without any hit were thinned out: in the full panel of roughly 83,000, 20% have a hit.

Molecule: COc1ccc(-c2cc(=O)oc3c4c(ccc23)OCN(Cc2ccc(F)cc2)C4)cc1
Target of assay: NCI-H23 lung
Units text: %
growth: 41.2

Molecule: O=c1[nH]c(=S)[nH]c(=O)n1Cc1cccc2ccccc12
Target of assay: NCI-H23 lung
Units text: %
growth: 102

Molecule: COc1cc2cc(Oc3ccc(NC(=O)Nc4cccc(C(F)(F)F)c4)cc3)c(C)nc2cc1OCCN1CCCCC1
Target of assay: NCI-H23 lung
Units text: %
growth: -75.4

Molecule: O=c1[nH]c(-c2ccccn2)nc2sc3c(c12)CCCCCC3
Target of assay: NCI-H23 lung
Units text: %
growth: 48.7

Molecule: Cn1c(=O)c2c(-c3ccccc3F)n(-c3ccc4c(c3)OCO4)cc2n(C)c1=O
Target of assay: NCI-H23 lung
Units text: %
growth: 95.2

Molecule: O=C(N/N=C(\CS(=O)(=O)c1ccccc1)c1cc2ccccc2oc1=O)c1ccccc1
Target of assay: NCI-H23 lung
Units text: %
growth: 97.9

Molecule: O=[N+]([O-])c1cc2c(cc1Br)-c1ccccc1C2
Target of assay: NCI-H23 lung
Units text: %
growth: 84.7

Molecule: CCCCCCCC/C=C\CCCCCCCCOc1cccc(CC(=O)NCC[N+]2(C)CCOCC2)c1
Target of assay: NCI-H23 lung
Units text: %
growth: 90.4

Molecule: CNc1ccc(Br)cc1-c1n[nH]c(=O)[nH]c1=O
Target of assay: NCI-H23 lung
Units text: %
growth: 90.8

Molecule: O=C1/C(=C/c2ccc(Cl)cc2)N=C(c2ccccc2)N1CCc1cccs1
Target of assay: NCI-H23 lung
Units text: %
growth: 61.4

* * *

Test system: UACC-62 melanoma
Assay text: NCI-60 one-dose screen, 48 h (100 = growth as untreated, 0 = no growth, -100 = all killed)
Recorded conditions: 10 µM unless noted
This is part of a sample that, as a whole, favours compounds with a hit. Of some 83,000 tested, about 20% had one in any assay.
// classify: if (growth < 40%) Fulfilled else Not fulfilled

Compound: O=S(=O)(Nc1ccc(Cl)c(Cl)c1)c1ccc(-c2cnc(C3CC3)o2)cc1
Class assignment: Fulfilled
--
Compound: O=C(COc1ccc(/C=C2\CSc3ccccc3C2=O)cc1)c1ccc(Cl)cc1
Class assignment: Not fulfilled
--
Compound: Cc1nc(NC(=O)COc2cccc(/C=C3\COc4ccccc4C3=O)c2)sc1C
Class assignment: Fulfilled
--
Compound: CCN1CCN(c2nc3ccccc3c3c(=O)c4cc(F)ccc4sc23)CC1
Class assignment: Not fulfilled
--
Compound: COc1cc(/C=C/C(=O)C(=Cc2ccc(F)c(F)c2)C(=O)/C=C/c2ccc(O)c(OC)c2)ccc1O
Class assignment: Fulfilled
--
Compound: CC1(C)N=C(N)N=C(N)N1c1cccc(/C=C/C=C/c2cccc([N+](=O)[O-])c2)c1
Class assignment: Not fulfilled
--
Compound: O=C(C[Si](CC(=O)c1cccc(C(F)(F)F)c1)CC(=O)c1cccc(C(F)(F)F)c1)c1cccc(C(F)(F)F)c1
Class assignment: Not fulfilled
--
Compound: COc1ccc(NC(=O)COc2ccccc2)c(C(N)=O)c1
Class assignment: Not fulfilled
--
Compound: O=C1CC(c2ccsc2)c2snc(-c3ccc(Cl)cc3)c2N1 (centres undefined)
Class assignment: Fulfilled

* * *

Below, each of the compounds is paired with its reported growth value.
System: OVCAR-8 ovarian
Assay text: NCI-60 one-dose screen, 48 h (100 = growth as untreated, 0 = no growth, -100 = all killed)
Recorded conditions: 10 µM unless noted
This is part of a sample that, as a whole, favours compounds with a hit. Of some 83,000 tested, about 20% had one in any assay.
Measured parameter: growth (%)

Compound: C[C@H]1C(=O)C23CCC1C[C@@]21O[C@@H]2C(C)(C)C=CC(=O)C23COC1=O
Target of assay: OVCAR-8 ovarian
Units text: %
Reported measurement: 101
//
Compound: COC(=O)c1c2c(c(C)[n+]([O-])c1C)C(=O)C(NCc1ccc(O)cc1)=CC2=O
Target of assay: OVCAR-8 ovarian
Units text: %
Reported measurement: 5.26
//
Compound: Cc1cc(=O)oc2c1ccc1oc(C(=O)c3ccccc3)c(C)c12
Target of assay: OVCAR-8 ovarian
Units text: %
Reported measurement: 76.2
//
Compound: FCOC(C(F)(F)F)C(F)(F)F
Target of assay: OVCAR-8 ovarian
Units text: %
Reported measurement: 107
//
Compound: COc1ccccc1-n1c(SCc2cc(OC)c(OC)c(OC)c2)nc2ccc(Cl)cc2c1=O
Target of assay: OVCAR-8 ovarian
Units text: %
Reported measurement: 55.3
//
Compound: CSc1nnc(-c2sc3nnc(-c4ccccc4)c(-c4ccccc4)c3c2O)o1
Target of assay: OVCAR-8 ovarian
Units text: %
Reported measurement: 85.8
//
Compound: O=C(N/N=C/c1ccc2c(c1)OCO2)c1cnn2c1NC(c1ccccc1)C2 (stereo not given)
Target of assay: OVCAR-8 ovarian
Units text: %
Reported measurement: 66.8
//
Compound: Clc1ccc2c(N3CCN(c4ccnc(NC5CCCCC5)n4)CC3)ccnc2c1
Target of assay: OVCAR-8 ovarian
Units text: %
Reported measurement: 56.6
//
Compound: Cc1nc2cc(Nc3nc(N4CCOCC4)nc(N4CCN(C)CC4)n3)ccc2n1Cc1ccccc1
Target of assay: OVCAR-8 ovarian
Units text: %
Reported measurement: 98.3
//
Compound: Cc1ccc2nc(NC(=O)CSC(=S)N3CCN(C)CC3)sc2c1
Target of assay: OVCAR-8 ovarian
Units text: %
Reported measurement: 75.6

* * *

Tested on: UACC-257 melanoma
Assay text: NCI-60 one-dose screen, 48 h
Recorded conditions: 10 µM unless noted
The panel holds about 83,000 compounds, 20% with a hit somewhere; the sample as a whole holds those more often. Active and inactive are the calls of the source. How the source made its calls: active means growth percent below 10; inactive means the rest.
Outcomes: Y (active), N (inactive)

Compound: O=c1c2cc(F)ccc2oc2c(NCCNCCO)nc3ccccc3c12
Target of assay: UACC-257 melanoma
Class assignment: N
//
Compound: COc1cc(/C=C/C(=O)C(=Cc2ccc(F)c(F)c2)C(=O)/C=C/c2ccc(O)c(OC)c2)ccc1O
Target of assay: UACC-257 melanoma
Class assignment: N
//
Compound: COC(=O)c1c2c(c(C)[n+]([O-])c1C)C(=O)C=C(NCc1cccc(Cl)c1)C2=O
Target of assay: UACC-257 melanoma
Class assignment: Y
//
Compound: NC(=O)c1cc(I)ccc1NC(=O)COc1ccccc1
Target of assay: UACC-257 melanoma
Class assignment: N
//
Compound: COc1ccc(/C=N/OCC(O)CNCc2ccccc2)cc1OC1CCCC1 (configuration not stated)
Target of assay: UACC-257 melanoma
Class assignment: N
//
Compound: Cc1ccc(C(=O)Nc2ccccc2N)cc1
Target of assay: UACC-257 melanoma
Class assignment: N
//
Compound: O=c1ccc2ccccc2o1
Target of assay: UACC-257 melanoma
Class assignment: N
//
Compound: Cc1ccc(NS(=O)(=O)c2ccc(-c3cnc(C4CC4)o3)cc2)cc1
Target of assay: UACC-257 melanoma
Class assignment: N
//
Compound: O=C(CCCCCCC(=O)Nc1ccc2c(c1)/C(=C/c1ccc[nH]1)C(=O)N2)NO
Target of assay: UACC-257 melanoma
Class assignment: Y
//
Compound: Cc1ccc(-c2nnc(COc3ccc(-c4nnc(N)s4)cc3)o2)cc1
Target of assay: UACC-257 melanoma
Class assignment: N
//
Compound: COc1cc(Cn2cc(F)c(=O)[nH]c2=O)cc(OC)c1
Target of assay: UACC-257 melanoma
Class assignment: N
//
Compound: COc1cc(C(F)(F)F)ccc1-c1cc(-c2ccc(F)cc2)n[nH]1
Target of assay: UACC-257 melanoma
Class assignment: N
//
Compound: O=C1CCC(N2C(=O)c3cccc(NCCOCCOCCNC(=O)c4cc5c(o4)C(=O)c4ccccc4C5=O)c3C2=O)C(=O)N1 (configuration not stated)
Target of assay: UACC-257 melanoma
Class assignment: Y
//
Compound: c1ccc2cc(-c3n(Cc4ccc5ccccc5n4)c4ccccc4[n+]3Cc3ccc4ccccc4n3)ccc2c1
Target of assay: UACC-257 melanoma
Class assignment: Y
//
Compound: COc1ccc(-c2c(-c3cc4c(c(OC)c3OC)OCO4)noc2N)cc1
Target of assay: UACC-257 melanoma
Class assignment: N
//
Compound: COc1ccc(/C=N/NC(=O)c2cnn(CC(O)Cc3ccccc3)c2N)cc1OC1CCCC1 (configuration not stated)
Target of assay: UACC-257 melanoma
Class assignment: N
//
Compound: CCCN1CCN(c2ccc3nc(-c4ccc5nc(-c6ccc(C(F)(F)F)cc6)[nH]c5c4)[nH]c3c2)CC1
Target of assay: UACC-257 melanoma
Class assignment: N
//
Compound: COc1ccc(-c2cc(=O)oc3c4c(ccc23)OCN(Cc2ccc(F)cc2)C4)cc1
Target of assay: UACC-257 melanoma
Class assignment: N
//
Compound: Nc1cc2[nH]c(=O)c3ccccc3c2cc1Br
Target of assay: UACC-257 melanoma
Class assignment: N
//
Compound: COc1ccc(NS(=O)(=O)c2ccc(-c3cnc(C4CC4)o3)cc2)cc1
Target of assay: UACC-257 melanoma
Class assignment: N
//
Compound: CCN1CCN(c2nc3ccccc3c3c(=O)c4cc(F)ccc4sc23)CC1
Target of assay: UACC-257 melanoma
Class assignment: N
//
Compound: CSc1ccc(OC(C)=O)cc1C
Target of assay: UACC-257 melanoma
Class assignment: N
